Source listed as paper PMC6050284.

target: TintPBP2 (Scirpophaga excerptalis, UniProt A0A345D2V6); assay: Fluorescence competitive binding assay with 1-NPN probe, TintPBP2; details: displacement of 1-NPN (2 μM), 25 °C
Sequence (A0A345D2V6 entry or part of it): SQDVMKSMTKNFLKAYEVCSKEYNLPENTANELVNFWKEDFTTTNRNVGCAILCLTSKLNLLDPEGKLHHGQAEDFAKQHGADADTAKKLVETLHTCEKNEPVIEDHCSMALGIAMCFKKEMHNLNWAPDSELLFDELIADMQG
pIC50: −log10 of the molar value.

{"molecular_string": "CCCC/C=C/CCCCCCCCCC=O", "pIC50": 5.32}
{"molecular_string": "CCCC/C=C\\CCCCCCCCCC=O", "pIC50": 5.42}

---

biological target: TintPBP2 (Scirpophaga excerptalis, UniProt A0A345D2V6); assay: Fluorescence competitive binding assay with 1-NPN probe, TintPBP2; settings: calculated from IC50, 1-NPN probe
pKi: −log10 of the molar value.
Listed here are molecules together with their documented pKi.
observed_property: pKi

{"molecule": "CCCC/C=C\\CCCCCCCCCC=O [Z11–16: Ald]", "recorded_measurement": 5.55}
{"molecule": "CCCC/C=C/CCCCCCCCCC=O [E11–16: Ald]", "recorded_measurement": 5.45}

---

target: UniProt A0A345D2V5; test: Fluorescence competitive binding assay with 1-NPN probe, TintPBP1; details: displacement of 1-NPN (2 μM), 25 °C
Sequence (A0A345D2V5 entry or part of it): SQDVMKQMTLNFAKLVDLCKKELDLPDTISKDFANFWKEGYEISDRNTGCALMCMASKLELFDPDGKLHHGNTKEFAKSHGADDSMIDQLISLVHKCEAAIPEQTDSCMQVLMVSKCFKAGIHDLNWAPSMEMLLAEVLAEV
Listed here are molecules together with their documented IC50.

{"molecule": "CCCC/C=C\\CCCCCCCCCC=O [Z11–16: Ald]", "target_or_system": "UniProt A0A345D2V5", "IC50": "4.27 µM"}
{"molecule": "CCCC/C=C/CCCCCCCCCC=O [E11–16: Ald]", "target_or_system": "UniProt A0A345D2V5", "IC50": "3.09 µM"}

---

biological target: TintPBP3 (Scirpophaga excerptalis, UniProt A0A345D2V7); assay: Fluorescence competitive binding assay with 1-NPN probe, TintPBP3; conditions: calculated from IC50, 1-NPN probe
Sequence (A0A345D2V7 entry or part of it): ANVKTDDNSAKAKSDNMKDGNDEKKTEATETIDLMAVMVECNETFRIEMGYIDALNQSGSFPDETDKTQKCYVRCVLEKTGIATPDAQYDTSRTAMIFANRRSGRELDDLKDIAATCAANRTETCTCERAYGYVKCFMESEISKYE
pKi: −log10 of the molar value.
Listed here are molecules together with their documented pKi.
observed_property: pKi

{"molecular_string": "CCCC/C=C\\CCCCCCCCCC=O", "observed_property": "pKi", "recorded_measurement": 5.40}
{"molecular_string": "CCCC/C=C/CCCCCCCCCC=O", "observed_property": "pKi", "recorded_measurement": 5.46}
